- Test system: BT-549
- PROTOCOL: Growth inhibition of human BT-549 cells assessed as cell viability measured after 4 days by WST8 assay
- Format: functional, cell-based
- REPORTED CONDITIONS: BT-549, 96 h
QUANTITY: log10 of IC50 (log10 of the value in µM)
A value of 2 here means IC50 of 100 in µM, since values are log10.

If you can, please state the reported log10 of IC50 value of CC(C)c1cnn2c(NCc3ccc(NC(=O)CCCN4CCN(CCCCCc5cccc6c5CN(C5CCC(=O)NC5=O)C6=O)CC4)cc3)nc(OC3CCN(C)CC3)nc12 (stereo not drawn) . -0.72

If you can, please state the reported log10 of IC50 value of CC(C)c1cnn2c(NCc3ccccc3)nc(OC3CCN(C)CC3)nc12 . -0.28

If you can, please state the reported log10 of IC50 value of CC(C)c1cnn2c(NCc3ccc(NC(=O)CCCCCCCCOc4cccc5c4CN(C4CCC(=O)NC4=O)C5=O)cc3)nc(OC3CCN(C)CC3)nc12 (stereo not drawn) . -0.70

If you can, please state the reported log10 of IC50 value of CC(C)c1cnn2c(NCc3ccc(NC(=O)CCCCCCNc4cccc5c4C(=O)N(C4CCC(=O)NC4=O)C5=O)cc3)nc(OC3CCN(C)CC3)nc12 (stereo not drawn) . -0.26

If you can, please state the reported log10 of IC50 value of CC(C)c1cnn2c(NCc3ccc(NC(=O)COCCOCCOc4cccc5c4C(=O)N(C4CCC(=O)NC4=O)C5=O)cc3)nc(OC3CCN(C)CC3)nc12 (stereo not drawn) . 0.58

If you can, please state the reported log10 of IC50 value of CC(C)c1cnn2c(NCc3ccc(NC(=O)CCCN4CCN(CCCc5cccc6c5CN(C5CCC(=O)NC5=O)C6=O)CC4)cc3)nc(OC3CCN(C)CC3)nc12 (stereo not drawn) . -0.24

If you can, please state the reported log10 of IC50 value of CC(C)c1cnn2c(NCc3cccc(CCCCCCNC(=O)COc4cccc5c4C(=O)N(C4CCC(=O)NC4=O)C5=O)c3)cc(NCCCCCCN)nc12 (stereo not drawn) . 1.11

If you can, please state the reported log10 of IC50 value of CC(C)c1cnn2c(NCc3ccc(CCCOCCOCCOc4cccc5c4C(=O)N(C4CCC(=O)NC4=O)C5=O)cc3)nc(OC3CCN(C)CC3)nc12 (stereo not drawn) . 0.20

If you can, please state the reported log10 of IC50 value of CC(C)c1cnn2c(NCc3ccccc3N(C)C)nc(OC3CCN(C)CC3)nc12 . 0.01

If you can, please state the reported log10 of IC50 value of CC(C)c1cnn2c(NCc3ccc(CCCCCCNC(=O)COc4cccc5c4C(=O)N(C4CCC(=O)NC4=O)C5=O)cc3N(C)C)nc(OC3CCN(C)CC3)nc12 (stereo not drawn) . 0.92

If you can, please state the reported log10 of IC50 value of CC(C)c1cnn2c(NCc3cccc(CCCCCCCOc4cccc5c4C(=O)N(C4CCC(=O)NC4=O)C5=O)c3N(C)C)nc(OC3CCN(C)CC3)nc12 (stereo not drawn) . 0.30

If you can, please state the reported log10 of IC50 value of CC(C)c1cnn2c(NCc3ccc(NC(=O)CCCCCCc4cccc5c4CN(C4CCC(=O)NC4=O)C5=O)cc3)nc(OC3CCN(C)CC3)nc12 (stereo not drawn) . -0.64

If you can, please state the reported log10 of IC50 value of CC(C)c1cnn2c(NCc3ccc(CCCCCCCOc4cccc5c4C(=O)N(C4CCC(=O)NC4=O)C5=O)cc3)nc(OC3CCN(C)CC3)nc12 (stereo not drawn) . 0.31
